All values here come from patent US10851108B2.

systemTested: hROMK (human Kir1.1) (Homo sapiens (Human), UniProt P48048)
Sequence (P48048 whole entry): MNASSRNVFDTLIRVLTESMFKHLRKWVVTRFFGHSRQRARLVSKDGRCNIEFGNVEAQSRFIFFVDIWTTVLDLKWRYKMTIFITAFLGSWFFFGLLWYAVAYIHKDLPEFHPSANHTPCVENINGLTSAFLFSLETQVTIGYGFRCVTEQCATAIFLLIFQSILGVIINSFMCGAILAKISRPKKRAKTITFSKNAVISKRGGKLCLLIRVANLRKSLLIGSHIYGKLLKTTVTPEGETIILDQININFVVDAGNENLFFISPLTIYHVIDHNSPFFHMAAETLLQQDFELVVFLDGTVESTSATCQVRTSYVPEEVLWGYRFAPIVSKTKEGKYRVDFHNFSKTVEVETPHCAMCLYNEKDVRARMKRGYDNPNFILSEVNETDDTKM
protocolNotes: Thallium Flux Assay
appliedConditions: CHO T-Rex hROMK stable cell line, 10-point concentration response; read-out: hROMK Th+ Flux IC50
Please respond with TRUE when measured IC50 is strictly beneath 200 nM, and with FALSE in all other cases.

Field: example entries. Status: answers known.
> print(dat)
                                   compound                              systemtested    cat
1  Cc1c(C(O)CN2CCc3nc(-n4ccc5cc(C#N)ccc54)ncc3C2)ccc2c1COC2=O (single isomer, unassigned) [Example 16-II]  hROMK (human Kir1.1) (Homo sapiens (Human), UniProt P48048)  FALSE
2  N#Cc1ccc2c(ccn2-c2ncc3c(n2)CCN(CC(O)c2ccc4c(c2)COC4=O)C3)c1 (single isomer, unassigned) [Example 17-I]  hROMK (human Kir1.1) (Homo sapiens (Human), UniProt P48048)  FALSE
3  Cc1c(C(O)CN2CCc3nc(-n4cc(C#N)c5ccccc54)ncc3C2)ccc2c1COC2=O (single isomer, unassigned) [Example 8-I]  hROMK (human Kir1.1) (Homo sapiens (Human), UniProt P48048)   TRUE
4  Cc1c(CN2CCc3cc(Nc4cccc(F)c4C#N)ccc3C2)ccc2c1COC2=O  hROMK (human Kir1.1) (Homo sapiens (Human), UniProt P48048)  FALSE
5  Cc1c(C(O)CN2CCc3cc(Nc4ccc(C#N)c(F)c4)ccc3C2)ccc2c1COC2=O (single isomer, unassigned) [Example 32-II]  hROMK (human Kir1.1) (Homo sapiens (Human), UniProt P48048)   TRUE
6  Cc1cc(Nc2ncc3c(n2)CCN(Cc2ccc4c(c2C)COC4=O)C3)ncc1C#N  hROMK (human Kir1.1) (Homo sapiens (Human), UniProt P48048)  FALSE
7  Cc1c(C(O)CN2CCc3nc(-n4nc(C#N)c5ccccc54)ncc3C2)ccc2c1COC2=O (single isomer, unassigned)  hROMK (human Kir1.1) (Homo sapiens (Human), UniProt P48048)   TRUE
8  Cc1c(C(O)CN2CCc3nc(-n4ccc5ncccc54)ncc3C2)ccc2c1COC2=O (single isomer, unassigned)  hROMK (human Kir1.1) (Homo sapiens (Human), UniProt P48048)   TRUE
9  Cc1c(C(CO)N2CCc3nc(Nc4ccc(C#N)c(F)c4)ncc3C2)ccc2c1COC2=O (single isomer, unassigned) [Example 29-II]  hROMK (human Kir1.1) (Homo sapiens (Human), UniProt P48048)  FALSE

We next turn to a different compound, shown below.
Would you kindly verify if IC50 of Cc1c(C(O)CN2CCc3nc(-n4ncc5c(C#N)cccc54)ncc3C2)ccc2c1COC2=O (single isomer, unassigned) [Example 12-I] is strictly less than 200 nM?
TRUE
